Hello, the source for this data is patent US20140148432A1, in case you need it.

Kindly supply the reported Human pH Boost Ratio (IC50 pH 7.6/IC50 pH 6.9) values for the records listed here.
# assayed-system: GluN1/GluN2B receptors (Homo sapiens, UniProt Q05586+Q13224)
# Sequence (Q13224 27-1484, other chains not shown): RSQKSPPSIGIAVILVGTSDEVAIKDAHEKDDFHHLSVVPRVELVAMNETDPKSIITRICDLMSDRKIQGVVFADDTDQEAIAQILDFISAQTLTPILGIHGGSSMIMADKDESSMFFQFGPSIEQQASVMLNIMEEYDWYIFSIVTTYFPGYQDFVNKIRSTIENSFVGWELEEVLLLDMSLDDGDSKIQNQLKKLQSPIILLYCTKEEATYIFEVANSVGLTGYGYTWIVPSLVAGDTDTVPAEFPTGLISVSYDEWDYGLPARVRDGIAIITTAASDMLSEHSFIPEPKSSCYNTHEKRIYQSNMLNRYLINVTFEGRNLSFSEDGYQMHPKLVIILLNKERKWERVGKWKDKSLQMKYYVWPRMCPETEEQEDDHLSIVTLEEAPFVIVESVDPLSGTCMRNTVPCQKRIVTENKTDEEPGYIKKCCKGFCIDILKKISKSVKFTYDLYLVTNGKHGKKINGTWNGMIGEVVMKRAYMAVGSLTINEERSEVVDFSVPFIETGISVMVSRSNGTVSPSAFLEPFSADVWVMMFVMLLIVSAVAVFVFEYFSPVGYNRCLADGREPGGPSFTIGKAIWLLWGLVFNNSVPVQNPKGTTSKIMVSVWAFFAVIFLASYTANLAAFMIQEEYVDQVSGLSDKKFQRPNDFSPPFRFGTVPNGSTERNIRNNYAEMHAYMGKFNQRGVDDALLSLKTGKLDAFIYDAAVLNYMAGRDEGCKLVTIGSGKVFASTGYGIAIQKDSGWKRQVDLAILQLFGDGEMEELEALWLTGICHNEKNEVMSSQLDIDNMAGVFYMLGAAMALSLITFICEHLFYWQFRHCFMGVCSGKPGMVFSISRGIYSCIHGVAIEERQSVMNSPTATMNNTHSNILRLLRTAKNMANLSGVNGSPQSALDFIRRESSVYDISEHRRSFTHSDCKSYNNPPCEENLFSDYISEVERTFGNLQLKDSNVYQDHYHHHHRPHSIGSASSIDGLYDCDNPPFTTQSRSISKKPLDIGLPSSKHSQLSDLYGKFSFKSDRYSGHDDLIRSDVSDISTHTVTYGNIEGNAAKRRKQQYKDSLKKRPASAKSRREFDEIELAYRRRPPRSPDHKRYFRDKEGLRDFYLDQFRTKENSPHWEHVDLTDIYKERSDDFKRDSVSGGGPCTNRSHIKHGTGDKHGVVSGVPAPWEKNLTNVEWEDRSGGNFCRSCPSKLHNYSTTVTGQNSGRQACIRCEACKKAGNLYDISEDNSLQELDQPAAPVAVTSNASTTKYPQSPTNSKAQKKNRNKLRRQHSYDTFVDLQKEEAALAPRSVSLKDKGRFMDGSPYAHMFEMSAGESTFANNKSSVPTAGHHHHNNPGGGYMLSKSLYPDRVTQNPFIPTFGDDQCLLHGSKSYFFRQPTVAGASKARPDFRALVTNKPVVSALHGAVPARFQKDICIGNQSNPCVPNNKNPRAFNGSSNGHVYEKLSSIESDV
# protocol-summary: IC50 of GluN1/GluN2B receptors expressed in Xenopus oocytes (two electrode voltage-clamp), human
# Format: cell-based
# stated-conditions: IC50 at pH 7.6 divided by IC50 at pH 6.9
Give the figure only, with no unit attached.

Looking up O=C1CCc2cc(OCC3CCN(C(=O)Nc4ccc(C(F)(F)F)cc4)CC3)ccc2N1 [Compound 17] , I found its Human pH Boost Ratio (IC50 pH 7.6/IC50 pH 6.9) recorded as 2.0

Looking up O=C1CCc2cc(OCC3CN(C(=O)Nc4ccc(Cl)cc4)C3)ccc2N1 [Compound 21] , I found its Human pH Boost Ratio (IC50 pH 7.6/IC50 pH 6.9) recorded as 1.7

Looking up O=C1CCc2cc(OCC3CCN(C(=O)Nc4ccc(Cl)cc4)CC3)ccc2N1 [Compound 13] , I found its Human pH Boost Ratio (IC50 pH 7.6/IC50 pH 6.9) recorded as 2.0

Looking up O=C1CCc2cc(OCC3CCN(C(=O)OCc4ccc(Cl)cc4)CC3)ccc2N1 [Compound 11] , I found its Human pH Boost Ratio (IC50 pH 7.6/IC50 pH 6.9) recorded as 1.4

Looking up O=C1CCc2cc(OCC3CN(C(=O)NCc4ccc(Cl)cc4)C3)ccc2N1 [Compound 28] , I found its Human pH Boost Ratio (IC50 pH 7.6/IC50 pH 6.9) recorded as 3.5
